The values you see were collected from ChEMBL document CHEMBL2331243.

Target: NAD-dependent protein deacetylase sirtuin-1 (Homo sapiens)
Sequence (Q96EB6 whole entry): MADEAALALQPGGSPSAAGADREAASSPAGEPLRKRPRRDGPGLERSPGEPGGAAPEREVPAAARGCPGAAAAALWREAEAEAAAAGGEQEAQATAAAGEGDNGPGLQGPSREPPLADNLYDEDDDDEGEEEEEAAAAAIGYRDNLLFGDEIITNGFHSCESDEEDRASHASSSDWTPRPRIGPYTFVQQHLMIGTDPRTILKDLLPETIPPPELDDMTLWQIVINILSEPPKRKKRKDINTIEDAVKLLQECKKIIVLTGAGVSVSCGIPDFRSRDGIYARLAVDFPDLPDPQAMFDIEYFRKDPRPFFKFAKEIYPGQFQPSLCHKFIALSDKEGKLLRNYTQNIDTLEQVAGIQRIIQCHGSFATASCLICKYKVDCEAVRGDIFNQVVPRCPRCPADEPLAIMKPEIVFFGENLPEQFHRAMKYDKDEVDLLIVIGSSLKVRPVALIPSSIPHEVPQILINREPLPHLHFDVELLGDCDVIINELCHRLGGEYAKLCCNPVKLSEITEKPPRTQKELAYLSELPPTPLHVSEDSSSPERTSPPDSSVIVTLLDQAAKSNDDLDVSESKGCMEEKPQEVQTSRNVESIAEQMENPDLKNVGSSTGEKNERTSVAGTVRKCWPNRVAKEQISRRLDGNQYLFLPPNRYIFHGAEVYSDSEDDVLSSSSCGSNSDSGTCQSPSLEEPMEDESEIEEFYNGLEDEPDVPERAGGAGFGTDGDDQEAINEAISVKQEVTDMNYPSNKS
Experiment: Activation of N-terminal His6-tagged SIRT1 (156 to 664 amino acid residues) (unknown origin) expressed in Escherichia coli BL21(DE3) using ac-RHKKac-AMC as substrate after 45 mins by fluorometric analysis
Listed here are molecules together with their documented EC50.
OBSERVABLE: EC50 (µM)

1) O=C(N/N=C/c1cc(Br)c(O)c(Br)c1O)c1ccc2cc(Br)ccc2c1; 2.7
2) O=C(Nc1ccccc1-c1cn2c(CN3CCNCC3)csc2n1)c1ccc2ccccc2n1; 0.99
3) O=C(N/N=C/c1cc(Br)c(O)c(Br)c1O)c1ccc(-c2ccc3c(c2)OCO3)cc1; 3.4
4) O=C(N/N=C/c1cc(Br)c(O)c(Br)c1O)c1ccc(C(F)(F)F)cc1; 20.5

---

Biological target: NAD-dependent protein deacetylase sirtuin-1 (Homo sapiens, UniProt Q96EB6)
Sequence (Q96EB6 whole entry): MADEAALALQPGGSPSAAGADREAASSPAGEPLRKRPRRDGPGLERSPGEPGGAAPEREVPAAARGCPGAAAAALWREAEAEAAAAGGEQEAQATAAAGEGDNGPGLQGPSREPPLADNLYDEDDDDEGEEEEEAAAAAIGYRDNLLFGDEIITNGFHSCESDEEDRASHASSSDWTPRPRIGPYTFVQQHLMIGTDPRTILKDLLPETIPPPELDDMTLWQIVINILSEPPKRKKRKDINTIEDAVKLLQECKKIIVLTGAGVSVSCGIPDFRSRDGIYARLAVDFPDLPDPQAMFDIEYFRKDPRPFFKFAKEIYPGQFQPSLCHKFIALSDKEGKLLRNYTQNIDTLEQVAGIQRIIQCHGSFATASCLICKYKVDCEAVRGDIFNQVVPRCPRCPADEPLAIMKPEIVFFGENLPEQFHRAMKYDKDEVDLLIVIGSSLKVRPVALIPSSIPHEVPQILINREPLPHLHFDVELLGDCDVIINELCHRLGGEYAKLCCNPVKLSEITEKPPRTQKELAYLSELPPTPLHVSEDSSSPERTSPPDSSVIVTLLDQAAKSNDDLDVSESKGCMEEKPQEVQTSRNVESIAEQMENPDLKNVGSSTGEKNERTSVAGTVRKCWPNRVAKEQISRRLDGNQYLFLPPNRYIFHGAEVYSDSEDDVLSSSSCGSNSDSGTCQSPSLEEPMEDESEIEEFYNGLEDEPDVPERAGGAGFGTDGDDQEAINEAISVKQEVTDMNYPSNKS
Experiment: Activation of N-terminal His6-tagged SIRT1 (156 to 664 amino acid residues) (unknown origin) expressed in Escherichia coli BL21(DE3) using ac-RHKKac-AMC as substrate after 45 mins by fluorometric analysis
pEC50: −log10 of the molar value.
Listed here are compounds together with their documented pEC50.
OBSERVABLE: pEC50

1) O=C(Nc1ccccc1-c1cn2c(CN3CCNCC3)csc2n1)c1cnc2ccccc2c1; 6.17
2) O=C(N/N=C/c1cc(Br)c(O)c(Br)c1O)c1ccc2c(c1)Cc1ccccc1-2; 5.27
3) O=C(Nc1ccccc1-c1cn2c(CN3CCNCC3)csc2n1)C1CCCC1; 3.89
4) O=C(N/N=C/c1cc(Br)c(O)c(Br)c1O)c1ccc(-c2ccccc2)cc1; 5.77
5) O=C(N/N=C/c1ccc(O)cc1O)c1ccc(-c2ccccc2)cc1; 4.98
6) O=C(N/N=C/c1cc(Br)c(O)c(Br)c1O)c1cc2ccccc2cc1O; 5.35
7) O=C(N/N=C/c1cc(Br)c(O)c(Br)c1O)c1ccc2ccccc2c1; 5.80
8) N#Cc1ccc2cc(C(=O)N/N=C/c3cc(Br)c(O)c(Br)c3O)ccc2c1; 5.36
9) CS(=O)(=O)c1ccc2cc(C(=O)N/N=C/c3cc(Br)c(O)c(Br)c3O)ccc2c1; 5.64
10) Cc1ccc(C(=O)N/N=C/c2cc(Br)c(O)c(Br)c2O)cc1; 5.02
11) COc1c(Br)cc(/C=N/NC(=O)c2ccc(-c3ccccc3)cc2)c(O)c1Br; 4.55
12) COc1ccc(C(=O)Nc2ccccc2-c2cn3c(CN4CCNCC4)csc3n2)c(OC)c1; 4.51
13) O=C(N/N=C/c1cc(Br)c(O)c(Br)c1O)c1ccc2ncccc2c1; 4.26
